protocolDescription: Pharmacokinetic study in rats after oral administration of OS extract (UHPLC-QqQ-MS/MS of plasma)
Type: in vivo, rat
assayConditions: male, SD, in vivo, 3 g/kg; rat plasma collected 0.5 h after oral administration of the OS extract; read-out: Concentration printed in MRM chromatogram of plasma sample (Figure 2C)
propertyName: concentration at 0.5 h (ng/mL)
Write down the numeric answer in ng/mL and omit the unit.

State, in one line, measured concentration at 0.5 h of COc1c(O)cc2oc(-c3ccc(O)cc3)cc(=O)c2c1O 36

----------
protocolDescription: Stability of the analytes in rat plasma samples under storage conditions
Assay type: physicochemical
assayConditions: spiked concentration 40 ng/mL, n = 6
propertyName: Measured, Room temperature for 4 h
Give the number first and the unit second.

{"molecule": "O=c1cc(-c2ccccc2)oc2cc(O)c(O)c(O)c12 [Baicalein, baicalein]", "recordedResult": "40.41 ± 3.19 ng/mL"}
{"molecule": "O=c1cc(-c2ccccc2)oc2cc(O[C@@H]3O[C@H](CO)[C@@H](O)[C@H](O)[C@H]3O)c(O)c(O)c12 [Oroxin A, oroxin A]", "recordedResult": "38.81 ± 2.31 ng/mL"}
{"molecule": "O=C(O)[C@H]1O[C@@H](Oc2cc(O)c3c(=O)cc(-c4ccccc4)oc3c2)[C@H](O)[C@@H](O)[C@@H]1O [Chrysin-7-O-β-D-glucuronide, chrysin-7-O-β-D-glucuronide]", "recordedResult": "39.19 ± 3.16 ng/mL"}

Next up:
State, in one line, measured Measured, Room temperature for 4 h of O=c1cc(-c2ccccc2)oc2cc(O[C@@H]3O[C@H](CO[C@@H]4O[C@H](CO)[C@@H](O)[C@H](O)[C@H]4O)[C@@H](O)[C@H](O)[C@H]3O)c(O)c(O)c12 [Oroxin B, oroxin B] 41.95 ± 3.13 ng/mL
